Tested on: ALP in NHAC (normal human articular chondrocytes)
measurementNotes: Alkaline Phosphatase (ALP) activity assay: ALP staining and quantitation in NHACs (prevention of chondrocyte hypertrophy)
Assay type: cell-based
recordedConditions: Chondrocyte, 288 h, human IL-1 beta 10 ng/mL, 12 days, read-out: ALP in NHAC (% Efficacy)
Recorded Emax by entry

COc1cc([C@@]23C[C@]2(C(=O)Nc2cc(C(F)(F)F)ccc2OC)[C@H]2C[C@H](O)[C@@H]3O2)ccn1 (racemic) = 65%
O=C(Nc1cc(Cl)cc(C(F)(F)F)c1)[C@]12C[C@@]1(c1ccnc(F)c1)[C@H]1O[C@@H]2C[C@@H]1O (racemic) = 0%
O=C(Nc1cccc(C(F)(F)F)c1F)[C@]12C[C@@]1(c1ccnc(F)c1)[C@H]1O[C@@H]2C[C@@H]1O (racemic) = 8%

Task: Fill blank: measured Emax of the molecule Cc1cc(C(F)(F)F)cc(NC(=O)[C@]23C[C@@]2(c2ccnc(F)c2)[C@H]2O[C@@H]3C[C@@H]2O)n1 (racemic) is ____.
Result: 0%

====

System: ALP in NHAC (normal human articular chondrocytes)
measurementNotes: Alkaline Phosphatase (ALP) activity assay: ALP staining and quantitation in NHACs (prevention of chondrocyte hypertrophy)
Format: cell-based
recordedConditions: Chondrocyte, 288 h, human IL-1 beta 10 ng/mL, 12 days, read-out: ALP in NHAC (% Efficacy)
Method: The compounds of the present invention were evaluated in the Alkaline Phosphatase (ALP) activity assay to determine the ability of the compounds to prevent chondrocyte hypertrophy in normal human articular chondrocytes (NHACs). […] The staining was imaged by fluoresecent microscopy, using the 561 nm wavelength, and/or quantified by high content imaging with the ImageXpress Confocal (Molecular Devices, Sunnyvale, CA). […]
Each item that follows carries a reported Emax.
State just the number; it will be interpreted in %.

Reference set, count: 3
Cn1cc([C@@]23C[C@]2(C(=O)Nc2cc(F)cc(C(F)(F)F)c2)[C@H]2C[C@H](O)[C@@H]3O2)c(C(F)(F)F)n1 (racemic) [Example 56] = 30
COc1cc([C@@]23C[C@]2(C(=O)Nc2cc(C(F)(F)F)cc(C4CC4)n2)[C@H]2C[C@H](O)[C@@H]3O2)ccn1 (racemic) [Example 23] = 4
COc1cc([C@@]23C[C@]2(C(=O)Nc2cc(C)cc(C(F)(F)F)c2)[C@H]2C[C@H](O)[C@@H]3O2)ccn1 (racemic) [Example 29] = 74

Task: Could you tell me which Emax is on file for COc1cc([C@@]23C[C@]2(C(=O)Nc2ccc(C(F)(F)F)cc2)[C@H]2C[C@H](O)[C@@H]3O2)ccn1 (racemic) [Example 76] ?
Result: 57

Task: Item under review: CCOc1cc(C(F)(F)F)cc(NC(=O)[C@]23C[C@@]2(c2ccnc(F)c2)[C@H]2O[C@@H]3C[C@@H]2O)n1 (racemic) [Example 8] . Reported Emax?
Result: 26

Task: Requested field: Emax. Item: Cn1cc([C@@]23C[C@]2(C(=O)Nc2cc(C(F)(F)F)cc(C(F)(F)F)c2)[C@H]2C[C@H](O)[C@@H]3O2)c(C(F)(F)F)n1 (racemic) [Example 63]
Result: 56

Task: GET /values?readout=Emax&item= Cn1cc([C@@]23C[C@]2(C(=O)Nc2ccc(C#N)c(C(F)(F)F)c2)[C@H]2C[C@H](O)[C@@H]3O2)c(C(F)(F)F)n1 (racemic) [Example 68]
Result: 50

Task: Returns the measured Emax for the input compound. Input: N#Cc1cc(NC(=O)[C@]23C[C@@]2(c2ccnc(F)c2)[C@H]2O[C@@H]3C[C@@H]2O)cc(C(F)(F)F)c1 (racemic) [Example 77]
Result: 29

Task: Return reported Emax; argument: CCOc1cc(C(F)(F)F)cc(NC(=O)[C@]23C[C@@]2(c2ccnc(OC)c2)[C@H]2O[C@@H]3C[C@@H]2O)n1 (racemic) [Example 25]
Result: 0

Task: Which Emax value belongs to O=C(Nc1ccc(Cl)c(C(F)(F)F)c1)[C@]12C[C@@]1(c1ccnc(F)c1)[C@H]1O[C@@H]2C[C@@H]1O (racemic) [Example 18] ?
Result: 25

Task: Look up Emax for this compound: COc1cc([C@@]23C[C@]2(C(=O)Nc2ccc(C(F)(F)F)c(F)c2)[C@H]2C[C@H](O)[C@@H]3O2)ccn1 (racemic) [Example 75]
Result: 26

Task: Can you look up the measured Emax of Cn1cc([C@@]23C[C@]2(C(=O)Nc2ccc(C(F)(F)F)c(F)c2)[C@H]2C[C@H](O)[C@@H]3O2)c(C(F)(F)F)n1 (racemic) [Example 41] for me?
Result: 84

Cited source: patent US12365692B2
